# ELISA OD450 values compiled below
target.entity: mouse ROR1 (serum titer ELISA antigen) (mouse, UniProt Q9Z139 30-403, limits assumed)
Sequence (Q9Z139 30-403 limits assumed): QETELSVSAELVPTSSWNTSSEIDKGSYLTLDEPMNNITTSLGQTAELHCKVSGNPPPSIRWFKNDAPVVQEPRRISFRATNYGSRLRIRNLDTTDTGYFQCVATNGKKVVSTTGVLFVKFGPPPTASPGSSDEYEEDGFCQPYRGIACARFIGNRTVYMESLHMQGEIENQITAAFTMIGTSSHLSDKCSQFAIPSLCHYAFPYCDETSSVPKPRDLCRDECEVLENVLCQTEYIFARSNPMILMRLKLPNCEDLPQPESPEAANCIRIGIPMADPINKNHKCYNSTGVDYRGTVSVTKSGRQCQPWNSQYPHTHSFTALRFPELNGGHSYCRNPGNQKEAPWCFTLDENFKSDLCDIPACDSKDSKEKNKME
measurement.notes: ELISA, direct coat; BCC supernatant
Answer in OD450, number only, no unit symbol.

Answered cases to consult:
binder	ELISA OD450 [OD450]
330F11 (antibody, V domains shown, chimeric counterpart m9; also called rabbit IgG of BCC well 330F11) VH: QSVEESGGRLVTPGTPLTLTCTVSGFSLNNYWMSWVRQAPGEGLEWIGTISSGAYTWFATWATGRFTISKTSTTVDLSITSPTTEDTATYFCARYSSTTDWTYFNIWGPGTLVTVSS VL: DVVMTQTPASVEAAVGGTVTIKCQASQSINNYLAWYQQKPGQPPKLLIYRASTLESGVPSRFKGSGSGTQFTLTISDLECADAATYYCQSYNGVGRTAFGGGTEVEFK	4
324C7 (antibody, V domains shown, chimeric counterpart m4; also called rabbit IgG of BCC well 324C7) VH: QSVEESGGRLVTPGTPLTLTCTVSGFSLSGAGVSWVRQAPGKGLEWIGYIDSGATTYYASWAKGRFTISKASTTVDLKIASPTTEDTATYFCARGYYGMDPWGQGTLVTVSS VL: DIVMTQTPASVEVAVGGTVTIKCQASQNIGSDLAWYQQKPGQPPKLLIYTTSNLASGVPSRFKGSGSGTGFTLTISDLECADAASYCCQGGYFSGRNIYGNAFGGGTEVVVK	0.21
323D10 (antibody, V domains shown, chimeric counterpart m5; also called rabbit IgG of BCC well 323D10) VH: QSVEESGGRLVTPGTPLTLTCTVSGFSLSRNAMNWVRQAPGKGLEYIGYISTSGTTFYANWVKGRFTISKTSTTVDLKMTSLTTEDTATYFCARDYNYAMDIWGQGTLVTVSS VL: AIDLTQTPASVEAAVGGTITINCQASESISSWLAWYQQKPGQRPKLLIYETSKLASGVPPRFSGSGSGTQFTLTISGVQCDDAATYYCQSYYRINNIGYDNAFGGGTEVEFK	4

As a next step, examine the binder that follows.
## Task Name the recorded ELISA OD450 for 324E2 (antibody, V domains shown, chimeric counterpart m6; also called rabbit IgG of BCC well 324E2) VH: QSVEESGGRLVTPGTPLTLTCTVSGFSLSNNAITWVRQAPGKGLEYIGIISSSGTTYYASWAKGRFTISKTSSTTVDLKMTSLTTEDTATYFCAGAFSVWGPGTLVTVSS VL: AQVLTQTPSSVSAAVGGTVTINCQSSQSVNNNDLAWFQQKPGQPPKRLIYWASKLASGVPSRFKGSGSGTQFILTISDLECDDAATYYCAGGYSGNIYGFGGGTEVEVK .
## Result 2.17
